experiment: Cell culture media unbound percentage and stability by rapid equilibrium dialysis (Example C); format: in vitro ADME; conditions: bovine, cell assay medium (RPMI-1640 with 10% fetal bovine serum), pH 7.4, rapid equilibrium dialysis, 4 hours at 37° C., read-out: Cell Culture Media Binding (% unbound)
Structures can show the parent of a compound that is named as a salt.
# note: boundary value 0.06 maps to 0.0; fraction unbound at 4 h, 1 µM below it maps to 1.0

INSERT INTO results (molecule, label_value) VALUES
  ('CCO[C@@H]1C[C@H](c2ccc(N(C)S(=O)(=O)c3ccc4[nH]c(C)nc4c3)cc2)[C@@H](C(=O)O)[C@H](C(=O)Nc2ccc(C(F)(F)F)cc2F)C1 [Example 281]', 0.0),
  ('CN1CCOc2ccc(S(=O)(=O)N(C)c3ccc([C@H]4CCC[C@@H](C(=O)Nc5ccc(C(F)(F)F)cc5F)[C@@H]4C(=O)O)cc3)cc21 [Example 122]', 1.0),
  ('Cc1nc2cc(S(=O)(=O)N(C)c3ccc([C@@H]4C[C@H](N5CC[C@H](F)C5)C[C@H](C(=O)Nc5ccc(C(F)(F)F)cc5F)[C@H]4C(=O)O)cc3)ccc2n1C (stereo in doubt) [Example 378]', 0.0),
  ('Cc1nc2cc(S(=O)(=O)N(C)c3ccc([C@H]4CCC[C@@H](C(=O)Nc5ccc(C(F)(F)F)cc5F)[C@@H]4C(=O)O)cc3)cc([C@H]3CCCNC3)c2n1C (relative stereo) [Example 269, hydrochloride]', 0.0),
  ('Cc1nc2cc(S(=O)(=O)N(C)c3ccc([C@H]4C[C@H](N5CCCC(F)(F)C5)C[C@@H](C(=O)Nc5ccc(C(F)(F)F)cc5F)[C@@H]4C(=O)O)cc3)ccc2n1C (stereo in doubt) [Example 352]', 1.0),
  ('Cc1nc2cc(S(=O)(=O)N(C)c3ccc([C@H]4CCC[C@@H](COc5ccc(C(F)(F)F)cc5O)[C@@H]4C(=O)O)cc3)ccc2n1C [Example 206]', 1.0),
  ('CN(c1ccc([C@H]2CCC[C@@H](C(=O)Nc3ccc(C(F)(F)F)cc3F)[C@@H]2C(=O)O)cc1)S(=O)(=O)c1ccc2c(c1)nc(Cl)n2C [Example 365]', 0.0),
  ('COC[C@@H]1C[C@H](c2ccc(N(C)S(=O)(=O)c3ccc4c(c3)nc(C)n4C)cc2)[C@@H](C(=O)O)[C@H](C(=O)Nc2ccc(C(F)(F)F)cc2F)C1 (single isomer, unassigned) [Example 250]', 1.0),
  ('Cc1nc2cc(S(=O)(=O)N(C)c3ccc([C@H]4C[C@@H](N)C[C@@H](C(=O)Nc5ccc(C(F)(F)F)cc5F)[C@@H]4C(=O)O)cc3)ccc2n1C (stereo in doubt) [Example 301]', 0.0),
  ('O=C(O)[C@@H]1[C@@H](c2ccc(-c3cnsc3)cc2)CCC[C@H]1C(=O)Nc1ccc(C(F)(F)F)cc1F [Example 16]', 1.0);

====

tested on: SW48 human colorectal cancer cells (MSI-H cancer cells); assay: SW48 cell viability, CellTiter-Glo, 120 hours (Example B); conditions: Homo sapiens, SW48, 120 h, read-out: SW48 pCC50, SW48 cell viability, 120 hours incubation (converted); Table 2
Each record here notes measured CC50.
VALUE TYPE: CC50

INSERT INTO results (molecule, value_type, test_result) VALUES
  ('Cc1nc2cc(S(=O)(=O)N(C)c3ccc([C@H]4C[C@@H](OC[C@H]5CCOC5)C[C@@H](C(=O)Nc5ccc(C(F)(F)F)cc5F)[C@@H]4C(=O)O)cc3)ccc2n1C (stereo in doubt)', 'CC50', '79.4 nM'),
  ('CN(c1ccc([C@H]2CCC[C@@H](C(=O)Nc3ccc(C(F)(F)F)cc3F)[C@@H]2C(=O)O)cc1)S(=O)(=O)c1ccc2[nH]cnc2c1 (single isomer, unassigned)', 'CC50', '2510 nM'),
  ('Cc1nc2cc(S(=O)(=O)N(C)c3ccc([C@H]4CCC[C@@H](C(=O)Nc5ccc(C(C)C)cc5)[C@@H]4C(=O)O)cc3)ccc2n1C [Example 396]', 'CC50', '631 nM'),
  ('Cc1nc2cc(S(=O)(=O)N(C)c3ccc([C@H]4C[C@@H](O[C@H]5CCOC5)C[C@@H](C(=O)Nc5ccc(C(F)(F)F)cc5F)[C@@H]4C(=O)O)cc3)ccc2n1C (stereo in doubt)', 'CC50', '100 nM'),
  ('O=C(O)[C@@H]1[C@@H](c2ccc(-c3ccc(F)nn3)cc2)CCC[C@H]1C(=O)Nc1ccc(C(F)(F)F)cc1F', 'CC50', '2510 nM');

====

molecular target: recombinant full-length WRN protein (1-1432) (Homo sapiens); construct: recombinant full-length WRN protein (1-1432); assay: WRN unwinding activity, fluorogenic 384-well assay (Example A); assay type: biochemical; conditions: WRN unwinding activity, 4 hr; Table 2; read-out: 4 hr UNW pIC50 (converted)
Sequence (Q14191 whole entry): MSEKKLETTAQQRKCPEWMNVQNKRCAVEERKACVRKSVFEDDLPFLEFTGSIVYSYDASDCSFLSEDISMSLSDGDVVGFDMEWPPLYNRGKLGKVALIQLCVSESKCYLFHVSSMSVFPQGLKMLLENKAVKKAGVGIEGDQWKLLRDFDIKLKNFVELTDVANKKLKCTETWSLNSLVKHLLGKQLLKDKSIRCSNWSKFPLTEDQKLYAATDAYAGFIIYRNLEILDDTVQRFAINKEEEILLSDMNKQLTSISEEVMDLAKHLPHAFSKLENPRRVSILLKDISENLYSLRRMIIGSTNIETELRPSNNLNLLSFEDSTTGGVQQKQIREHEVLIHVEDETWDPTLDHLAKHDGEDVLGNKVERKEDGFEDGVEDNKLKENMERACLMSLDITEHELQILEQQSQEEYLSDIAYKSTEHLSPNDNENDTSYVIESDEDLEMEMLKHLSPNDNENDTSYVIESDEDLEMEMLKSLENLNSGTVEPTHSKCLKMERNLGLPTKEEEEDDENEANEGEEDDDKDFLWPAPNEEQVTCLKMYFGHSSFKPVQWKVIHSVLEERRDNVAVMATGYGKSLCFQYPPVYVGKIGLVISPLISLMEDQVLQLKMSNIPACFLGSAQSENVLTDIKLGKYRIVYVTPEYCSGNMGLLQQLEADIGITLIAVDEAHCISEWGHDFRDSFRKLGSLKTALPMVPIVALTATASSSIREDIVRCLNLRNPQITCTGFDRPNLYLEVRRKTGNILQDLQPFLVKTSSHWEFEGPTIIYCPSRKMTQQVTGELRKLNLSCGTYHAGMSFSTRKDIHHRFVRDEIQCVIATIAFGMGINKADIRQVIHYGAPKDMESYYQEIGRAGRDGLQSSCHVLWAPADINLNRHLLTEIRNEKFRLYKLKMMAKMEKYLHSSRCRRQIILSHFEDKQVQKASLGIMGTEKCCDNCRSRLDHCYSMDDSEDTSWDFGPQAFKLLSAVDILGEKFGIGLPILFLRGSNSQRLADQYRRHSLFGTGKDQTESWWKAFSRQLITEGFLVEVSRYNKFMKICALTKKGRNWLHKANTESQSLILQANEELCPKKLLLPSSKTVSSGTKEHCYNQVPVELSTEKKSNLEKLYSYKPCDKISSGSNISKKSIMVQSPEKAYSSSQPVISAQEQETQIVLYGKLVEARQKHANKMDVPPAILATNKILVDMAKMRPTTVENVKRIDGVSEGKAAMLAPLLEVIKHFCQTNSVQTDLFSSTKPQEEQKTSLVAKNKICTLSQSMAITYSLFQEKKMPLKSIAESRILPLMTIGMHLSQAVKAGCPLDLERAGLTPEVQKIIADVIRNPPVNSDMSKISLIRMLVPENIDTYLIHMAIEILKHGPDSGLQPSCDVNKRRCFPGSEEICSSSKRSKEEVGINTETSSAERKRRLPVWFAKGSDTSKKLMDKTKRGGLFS
Structures can show the parent of a compound that is named as a salt.
VALUE TYPE: IC50 (nM)

INSERT INTO measurements (molecule, value_type, output_unit, test_result) VALUES
  ('CCO[C@@H]1C[C@H](c2ccc(N(C)S(=O)(=O)c3ccc4c(c3)ncn4C)cc2)[C@@H](C(=O)O)[C@H](C(=O)Nc2ccc(C(F)(F)F)cc2F)C1', 'IC50', 'nM', 2.51),
  ('COCCO[C@@H]1C[C@H](C(=O)Nc2ccc(C(F)(F)F)cc2F)[C@@H](C(=O)O)[C@H](c2ccc(N(C)S(=O)(=O)c3ccc4c(c3)nc(C)n4C)cc2)C1 (stereo in doubt)', 'IC50', 'nM', 63.1),
  ('Cc1nc2cc(S(=O)(=O)N(C)c3ccc([C@H]4CC(F)(F)C[C@@H](C(=O)Nc5ccc(C(F)(F)F)cc5F)[C@@H]4C(=O)O)cc3)ccc2n1C (relative stereo)', 'IC50', 'nM', 3.16),
  ('Cc1nc2cc(S(=O)(=O)N(C)c3ccc([C@H]4CCC[C@@H](COc5ccc(C(F)(F)F)cc5)[C@@H]4C(=O)O)cc3)cc([C@@H]3CCCNC3)c2n1C (single isomer, unassigned) [Example 209, hydrochloride]', 'IC50', 'nM', 2000),
  ('Cc1nc2cc(S(=O)(=O)N(C)c3ccc([C@H]4CCC[C@@H](C(=O)Nc5ccc(C(F)(F)F)cc5F)[C@@H]4C(=O)O)cc3)ccc2n1CCN', 'IC50', 'nM', 0.631);

====

tested on: SW48 human colorectal cancer cells (MSI-H cancer cells); assay: SW48 cell viability, CellTiter-Glo, 120 hours (Example B); conditions: Homo sapiens, SW48, 120 h, read-out: SW48 pCC50, SW48 cell viability, 120 hours incubation (converted); Table 2
VALUE TYPE: CC50

INSERT INTO results (molecule, test_result) VALUES
  ('Cc1nc2cc(S(=O)(=O)N(C)c3ccc([C@H]4C[C@@H](O[C@@H]5CCOC5)C[C@@H](C(=O)Nc5ccc(C(F)(F)F)cc5F)[C@@H]4C(=O)O)cc3)ccc2n1C (relative stereo)', '200 nM'),
  ('CC[C@H]1CC[C@H](NC(=O)[C@@H]2CCC[C@H](c3ccc(N(C)S(=O)(=O)c4ccc5c(c4)nc(C)n5C)cc3)[C@H]2C(=O)O)CC1', '1260 nM'),
  ('Cc1nc2cc(S(=O)(=O)N(C)c3ccc([C@H]4C[C@@H](N5CCC(F)(F)C5)C[C@@H](C(=O)Nc5ccc(C(F)(F)F)cc5F)[C@@H]4C(=O)O)cc3)ccc2n1C', '100 nM'),
  ('COC12CC(CO[C@@H]3C[C@H](C(=O)Nc4ccc(C(F)(F)F)cc4F)[C@@H](C(=O)O)[C@H](c4ccc(N(C)S(=O)(=O)c5ccc6c(c5)nc(C)n6C)cc4)C3)(C1)C2 (relative stereo)', '20000 nM'),
  ('Cc1nc2cc(S(=O)(=O)N(C)c3ccc([C@@H]4C[C@H](NCC(F)(F)F)C[C@H](C(=O)Nc5ccc(C(F)(F)F)cc5F)[C@H]4C(=O)O)cc3)ccc2n1C (stereo in doubt)', '10000 nM'),
  ('Cc1nc2cc(S(=O)(=O)N(C)c3ccc([C@H]4CCC[C@@H](C(=O)Nc5ccc(C(F)(F)F)cc5F)[C@@H]4C(=O)O)cc3Br)ccc2n1C', '2510 nM'),
  ('Cc1nc2cc(S(=O)(=O)N(C)c3ccc([C@H]4CCC[C@@H](C(=O)Nc5ccc(C(C)C)cc5)[C@@H]4C(=O)O)cc3)ccc2n1C (racemic) [Example 78]', '1000 nM'),
  ('Cc1nc2cc(S(=O)(=O)N(C)c3ccc([C@H]4CCC[C@@H](COc5ccc(C(F)(F)F)cc5)[C@@H]4C(=O)O)cc3)ccc2n1CCN(C)C', '6310 nM'),
  ('CCO[C@@H]1C[C@H](c2ccc(N(C)S(=O)(=O)c3ccc4c(c3)nc(C)n4C)cc2)[C@@H](C(=O)O)[C@H](C(=O)Nc2ccc(C(F)(F)F)cc2F)C1 (single isomer, unassigned)', '251 nM'),
  ('Cc1nc2cc(S(=O)(=O)N(C)c3ccc([C@@H]4C[C@H](N5CC[C@H](F)C5)C[C@H](C(=O)Nc5ccc(C(F)(F)F)cc5F)[C@H]4C(=O)O)cc3)ccc2n1C (stereo in doubt)', '3980 nM');
